Molecular target: Sigma intracellular receptor 2 (Homo sapiens, UniProt Q5BJF2)
Sequence (Q5BJF2 whole entry): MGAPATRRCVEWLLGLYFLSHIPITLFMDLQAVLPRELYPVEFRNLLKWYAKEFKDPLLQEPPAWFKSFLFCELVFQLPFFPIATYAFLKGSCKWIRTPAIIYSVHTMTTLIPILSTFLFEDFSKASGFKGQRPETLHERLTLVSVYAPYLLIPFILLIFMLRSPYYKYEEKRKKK
Test: GPCRScan assay: inhibition of Sigma 2
Set-up: radioligand conc. used [nm] 5.0, parental cells HEKT

molecule | tested.target | units.of.measure | Ki
Cc1nc(C2CCN(C(=O)c3ccc(OC(F)(F)F)cc3N)CC2)c2ncc(N3CCN(C)CC3)cc2n1 [BAY-693] | Sigma intracellular receptor 2 (Homo sapiens, UniProt Q5BJF2) | µM | 4.9

---

Recorded Ki values for a group of compounds are listed next.
Target: Sigma non-opioid intracellular receptor 1 (Homo sapiens, UniProt Q99720)
Sequence (Q99720 whole entry): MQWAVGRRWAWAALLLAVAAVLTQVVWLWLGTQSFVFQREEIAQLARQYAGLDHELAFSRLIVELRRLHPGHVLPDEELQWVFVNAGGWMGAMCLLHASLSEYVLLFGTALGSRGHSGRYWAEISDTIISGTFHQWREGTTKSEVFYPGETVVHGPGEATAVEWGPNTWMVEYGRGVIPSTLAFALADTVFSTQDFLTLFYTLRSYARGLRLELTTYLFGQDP
Assay: GPCRScan assay: inhibition of Sigma 1

structure.as.smiles | tested.target | Ki, nM
CN1CCN(c2cnc3c(C4CCN(C(=O)c5ccc(OC(F)(F)F)cc5N)CC4)ncnc3c2)CC1 | Sigma non-opioid intracellular receptor 1 (Homo sapiens, UniProt Q99720) | 2500
Cc1nc(C2CCN(C(=O)c3ccc(OC(F)(F)F)cc3N)CC2)c2ncc(N3CCN(C)CC3)cc2n1 | Sigma non-opioid intracellular receptor 1 (Homo sapiens, UniProt Q99720) | 2370
